The reported numbers originate from ChEMBL document CHEMBL5241057.

biological target: Matrilysin (Homo sapiens, UniProt P09237)
Sequence (P09237 whole entry): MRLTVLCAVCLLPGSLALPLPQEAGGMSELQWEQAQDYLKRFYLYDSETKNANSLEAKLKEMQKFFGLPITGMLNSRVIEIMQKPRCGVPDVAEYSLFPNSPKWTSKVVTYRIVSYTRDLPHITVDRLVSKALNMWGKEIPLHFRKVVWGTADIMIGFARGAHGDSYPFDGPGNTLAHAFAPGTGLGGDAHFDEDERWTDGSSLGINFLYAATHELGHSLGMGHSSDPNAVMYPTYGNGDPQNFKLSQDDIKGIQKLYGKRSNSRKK
result.type: Ki (µM)
Response body: numeric value in µM, unit text excluded.

API: value(readout=Ki, system=Matrilysin (Homo sapiens, UniProt P09237)) for record CN(C)c1ccc(-c2cn(-c3ccc(S(=O)(=O)NC(Cc4ccccc4)C(=O)NO)cc3)nn2)cc1 (stereo unspecified) 116

====

biological target: Matrix metalloproteinase-14 (Homo sapiens)
result.type: pIC50
Bear in mind: pIC50 is minus log10 of a mol/L concentration; give just that figure.

# input molecule: CC(C)=CCc1cc(/C=C/C(=O)O)cc(CC=C(C)C)c1O [ARTEPILLIN] ; wanted: its pIC50 3.46

====

target: UniProt:P08253; assay: Inhibition of MMP2 (unknown origin)
In this section we review reported pIC50 values for a set of compounds.
Bear in mind: pIC50 is minus log10 of a mol/L concentration; give just that figure.

The cases that follow already have their pIC50 on record.
| compound | assay.system | value.measured |
| --- | --- | --- |
| Cc1nc2ccccc2n(CC(=O)NN/C=C\c2cccc([N+](=O)[O-])c2)c1=O | UniProt:P08253 | 5.70 |
| CN(C)c1ccc(-c2cn(-c3ccc(S(=O)(=O)NC(Cc4ccccc4)C(=O)NO)cc3)nn2)cc1 (stereo not given) | UniProt:P08253 | 9.66 |
| CC(C)=CCc1cc(/C=C/C(=O)O)cc(CC=C(C)C)c1O [ARTEPILLIN] | UniProt:P08253 | 5.51 |
| O=C(NO)C1(S(=O)(=O)c2ccc(-n3cc(-c4ccc(-c5ccncc5)cc4)nn3)cc2)CCOCC1 | UniProt:P08253 | 9.64 |

The record that follows has no pIC50 shown yet.
# input compound: Cc1ccc(-c2cc(-c3ccc(S(=O)(=O)N[C@H](C(=O)O)C(C)C)cc3)no2)s1 ; wanted: its pIC50 10.35

====

molecular target: Macrophage metalloelastase (Homo sapiens)
Sequence (P39900 whole entry): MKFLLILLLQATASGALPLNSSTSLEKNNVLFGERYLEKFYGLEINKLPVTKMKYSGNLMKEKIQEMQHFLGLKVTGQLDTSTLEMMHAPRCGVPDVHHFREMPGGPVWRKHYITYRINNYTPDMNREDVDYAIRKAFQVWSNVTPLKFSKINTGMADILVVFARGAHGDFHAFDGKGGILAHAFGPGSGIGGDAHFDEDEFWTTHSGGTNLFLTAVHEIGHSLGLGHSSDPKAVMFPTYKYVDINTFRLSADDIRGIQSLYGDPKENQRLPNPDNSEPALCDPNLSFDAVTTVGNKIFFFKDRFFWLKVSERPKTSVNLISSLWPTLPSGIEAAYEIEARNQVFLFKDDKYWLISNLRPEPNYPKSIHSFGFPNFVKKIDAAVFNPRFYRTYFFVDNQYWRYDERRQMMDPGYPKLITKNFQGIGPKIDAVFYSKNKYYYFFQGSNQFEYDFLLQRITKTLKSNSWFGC
result.type: IC50 (nM)
Response body: numeric value in nM, unit text excluded.

API: value(readout=IC50, system=Macrophage metalloelastase (Homo sapiens)) for record Cc1ccc(-c2cc(-c3ccc(S(=O)(=O)N[C@H](C(=O)O)C(C)C)cc3)no2)s1 0.368

====

molecular target: 72 kDa type IV collagenase (Homo sapiens, UniProt P08253); test: Inhibition of MMP2 (unknown origin)
Sequence (P08253 whole entry): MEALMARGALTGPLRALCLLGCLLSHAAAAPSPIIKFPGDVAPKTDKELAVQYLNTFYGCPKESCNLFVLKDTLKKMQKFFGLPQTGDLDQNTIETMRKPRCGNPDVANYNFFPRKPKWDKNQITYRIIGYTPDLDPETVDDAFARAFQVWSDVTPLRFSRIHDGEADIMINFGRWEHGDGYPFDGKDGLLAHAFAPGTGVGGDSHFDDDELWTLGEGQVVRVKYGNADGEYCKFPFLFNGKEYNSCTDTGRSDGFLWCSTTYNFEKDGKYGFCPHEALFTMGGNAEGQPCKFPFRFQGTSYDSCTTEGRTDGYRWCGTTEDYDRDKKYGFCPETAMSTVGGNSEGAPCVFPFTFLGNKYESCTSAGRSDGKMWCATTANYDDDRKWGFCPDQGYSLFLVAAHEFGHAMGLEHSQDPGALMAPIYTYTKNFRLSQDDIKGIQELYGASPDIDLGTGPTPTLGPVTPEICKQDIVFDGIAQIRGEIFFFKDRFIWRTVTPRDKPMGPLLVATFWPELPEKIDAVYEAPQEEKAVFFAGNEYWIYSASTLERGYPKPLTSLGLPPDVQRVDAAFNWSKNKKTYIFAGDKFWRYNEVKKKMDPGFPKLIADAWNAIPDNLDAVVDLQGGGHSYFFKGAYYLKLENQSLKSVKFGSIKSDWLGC
pIC50: −log10 of the molar value. Where a SMILES comes first, the peptide text is derived from it. [ ]: non-standard residue; d: D form. The star is where a group is joined. ξ: configuration not given here. Pro(trans-4-F) = O=C(O)[C@@H]1C[C@@H](F)CN1; NMeIle(3ξ) = CCC(C)[C@H](NC)C(=O)O; Dab = NCC[C@H](N)C(=O)O; Hexanoyl = CCCCCC(=O)*; Bz = O=C(c1ccccc1)*; NHOH = ON*
Classify as follows. Reported pIC50 greater than or equal to 7: class 1. Reported pIC50 below: class 0.

Known results for compounds:
| compound | class.name |
| --- | --- |
| CC(=O)NCc1ccc(Oc2ccc(S(=O)(=O)CC3CS3)cc2)cc1 (stereo not drawn) | class 0 |
| NCc1nc(-c2ccc(Oc3ccc(S(=O)(=O)CC4CS4)cc3)cc2)no1 (stereo not drawn) | class 0 |

Form field: pIC50 at least 7? Entry: CCCCCC(=O)N1C[C@H](F)C[C@H]1C(=O)N(C)[C@H](C(=O)N[C@@H](CCNC(=O)c1ccccc1)C(=O)NO)C(C)CC (stereo partly drawn) (Hexanoyl-[Pro(trans-4-F)]-[NMeIle(3ξ)]-[Dab](Bz)-{NHOH}) class 1

Form field: pIC50 at least 7? Entry: NS(=O)(=O)c1cc(C(=O)c2ccc3c(-c4ccccc4)c[nH]c3c2)ccc1Cl class 1

Form field: pIC50 at least 7? Entry: CCc1ccc(-c2cc(-c3ccc(S(=O)(=O)N[C@H](C(=O)O)C(C)C)cc3)no2)s1 class 1

Form field: pIC50 at least 7? Entry: Cc1ccc(NCC(=O)[C@@H](Cc2ccccc2)NC(=O)Cn2c(=O)c(C)nc3ccccc32)cc1 class 0

Form field: pIC50 at least 7? Entry: C[C@@H]1O[C@@H](O[C@H]2[C@H](O[C@H]3CC[C@@]4(C)C(CC[C@]5(C)C4CC=C4C6CC(C)(C)CC[C@]6(C(=O)O)CC[C@]45C)[C@]3(C)COC(=O)[C@]3(O)C[C@@H](O)[C@@H](O)[C@H](OC(=O)/C=C/c4ccc(O)c(O)c4)C3)OC[C@H](O)[C@@H]2O)[C@H](O)[C@H](O)[C@H]1O (stereo partly drawn) class 0

====

biological target: 72 kDa type IV collagenase (Homo sapiens, UniProt P08253); assay: Inhibition of MMP2 (unknown origin) assessed as inhibition constant
result.type: IC50

| cpd.smiles | IC50 |
| --- | --- |
| CN([C@H]1CN(C(N)=O)C[C@@H]1S)S(=O)(=O)c1ccc(Oc2ccccc2)cc1 | 2.3 nM |

# input compound: NCCCCCC(=O)N1C[C@H](NS(=O)(=O)c2ccc(Oc3ccccc3)cc2)[C@@H](S)C1 ; wanted: its IC50 2.2 nM

====

target: Matrix metalloproteinase-9 (Homo sapiens, UniProt P14780); experiment: Inhibition of MMP9 (unknown origin) assessed as dissociation constant
Sequence (P14780 whole entry): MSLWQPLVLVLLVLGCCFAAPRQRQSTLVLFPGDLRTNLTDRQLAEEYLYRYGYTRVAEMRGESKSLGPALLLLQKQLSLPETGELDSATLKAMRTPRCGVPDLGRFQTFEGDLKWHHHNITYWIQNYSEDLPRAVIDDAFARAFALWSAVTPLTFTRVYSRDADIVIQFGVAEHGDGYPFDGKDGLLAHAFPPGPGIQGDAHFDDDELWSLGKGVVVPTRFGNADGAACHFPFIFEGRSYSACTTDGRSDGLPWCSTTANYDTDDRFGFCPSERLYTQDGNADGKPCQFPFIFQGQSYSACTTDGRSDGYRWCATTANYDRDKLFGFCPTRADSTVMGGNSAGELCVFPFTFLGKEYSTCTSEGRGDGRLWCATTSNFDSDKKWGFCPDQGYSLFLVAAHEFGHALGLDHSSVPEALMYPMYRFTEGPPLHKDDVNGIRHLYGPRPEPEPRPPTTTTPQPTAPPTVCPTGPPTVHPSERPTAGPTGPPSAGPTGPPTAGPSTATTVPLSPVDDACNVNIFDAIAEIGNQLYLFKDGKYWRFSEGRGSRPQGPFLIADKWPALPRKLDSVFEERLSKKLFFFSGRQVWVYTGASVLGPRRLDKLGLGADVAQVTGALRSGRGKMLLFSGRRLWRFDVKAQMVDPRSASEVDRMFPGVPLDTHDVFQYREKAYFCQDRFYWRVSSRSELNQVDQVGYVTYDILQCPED
result.type: IC50 (µM)
Response body: numeric value in µM, unit text excluded.

# input molecule: O=C(CCCSc1nc(=O)c2ccccc2[nH]1)Nc1nc2ccccc2[nH]1 ; wanted: its IC50 0.3
